# Target Of Assay: Protein translocase subunit SecA (Escherichia coli (strain K12)) (UniProt P10408)
# Sequence (P10408 whole entry): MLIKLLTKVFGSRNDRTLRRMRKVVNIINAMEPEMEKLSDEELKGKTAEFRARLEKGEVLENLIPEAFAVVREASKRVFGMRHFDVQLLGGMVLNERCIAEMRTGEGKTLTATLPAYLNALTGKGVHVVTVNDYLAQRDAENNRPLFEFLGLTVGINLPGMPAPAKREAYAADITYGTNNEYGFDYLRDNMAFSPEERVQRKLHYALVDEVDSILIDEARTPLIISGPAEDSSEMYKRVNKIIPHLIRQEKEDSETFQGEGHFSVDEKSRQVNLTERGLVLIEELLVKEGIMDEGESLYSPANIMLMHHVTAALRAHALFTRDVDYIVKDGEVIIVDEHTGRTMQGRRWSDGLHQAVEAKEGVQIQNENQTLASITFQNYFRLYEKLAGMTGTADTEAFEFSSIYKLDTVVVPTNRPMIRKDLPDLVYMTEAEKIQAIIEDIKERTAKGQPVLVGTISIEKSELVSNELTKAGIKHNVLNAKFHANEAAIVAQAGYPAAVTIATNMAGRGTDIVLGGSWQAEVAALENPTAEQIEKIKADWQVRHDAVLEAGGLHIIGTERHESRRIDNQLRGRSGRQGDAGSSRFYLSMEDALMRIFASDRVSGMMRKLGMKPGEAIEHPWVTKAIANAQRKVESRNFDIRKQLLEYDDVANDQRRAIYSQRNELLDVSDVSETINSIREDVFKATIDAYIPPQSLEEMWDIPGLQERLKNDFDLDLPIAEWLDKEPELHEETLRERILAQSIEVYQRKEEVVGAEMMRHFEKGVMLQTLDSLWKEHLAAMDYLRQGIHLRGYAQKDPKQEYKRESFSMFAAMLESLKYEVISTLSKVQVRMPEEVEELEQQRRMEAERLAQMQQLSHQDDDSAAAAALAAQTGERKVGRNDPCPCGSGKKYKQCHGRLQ
# Test Name: Assay to Identify E. coli SecA ATPase Inhibitors
# Type: functional
# Parameters: scale not given: direction of the effect not stated beside the values
# Test Context: 30 µM
Entries with a potency or affinity are not part of this list.
So I've got a bunch of molecules here, and I need their Percent Effect values.
The reply should read as a number followed by its unit.

Input: Protein translocase subunit SecA (Escherichia coli (strain K12)) (UniProt P10408) / Percent Effect / Cn1ccc(C(=O)NC2CCC23CCN(C(=O)c2ccncc2)CC3)c1 (stereo unspecified) : value?
Output: 3.11%

Input: // lookup Percent Effect | system=Protein translocase subunit SecA (Escherichia coli (strain K12)) (UniProt P10408) | key= `COCCN1C[C@H]2CC[C@@]3(N=C(C)N(CC4CC4)C3=O)[C@H]2C1`
Output: -4.99%

Input: // map `Cn1cnc2c1CCN(Cc1nc(Cc3ccccc3)no1)C2` to recorded Percent Effect (system: Protein translocase subunit SecA (Escherichia coli (strain K12)) (UniProt P10408))
Output: -2.4%

Input: Give Protein translocase subunit SecA (Escherichia coli (strain K12)) (UniProt P10408) Percent Effect for CS(=O)(=O)NCC1CCCCN1C(=O)Nc1cccnc1N1CCCC1 (stereo unspecified)
Output: -15.1%

Input: Entry O=C(CCc1ccc(=O)[nH]n1)N1CCCC(COc2ccc(F)cc2)C1 (stereo unspecified) , system Protein translocase subunit SecA (Escherichia coli (strain K12)) (UniProt P10408): what Percent Effect was measured?
Output: -2.1%

Input: Form entry - test system: Protein translocase subunit SecA (Escherichia coli (strain K12)) (UniProt P10408); read-out: Percent Effect; molecule: CCC(O)CN1CCN(C(=O)c2ccnc(N(C)C)c2)CC1 (stereo unspecified)
Output: -1.16%

====

# Target Of Assay: Tyrosyl-tRNA synthetase, putative (Trypanosoma cruzi (strain CL Brener)) (UniProt Q4DSP6)
# Sequence (Q4DSP6 as listed by the source): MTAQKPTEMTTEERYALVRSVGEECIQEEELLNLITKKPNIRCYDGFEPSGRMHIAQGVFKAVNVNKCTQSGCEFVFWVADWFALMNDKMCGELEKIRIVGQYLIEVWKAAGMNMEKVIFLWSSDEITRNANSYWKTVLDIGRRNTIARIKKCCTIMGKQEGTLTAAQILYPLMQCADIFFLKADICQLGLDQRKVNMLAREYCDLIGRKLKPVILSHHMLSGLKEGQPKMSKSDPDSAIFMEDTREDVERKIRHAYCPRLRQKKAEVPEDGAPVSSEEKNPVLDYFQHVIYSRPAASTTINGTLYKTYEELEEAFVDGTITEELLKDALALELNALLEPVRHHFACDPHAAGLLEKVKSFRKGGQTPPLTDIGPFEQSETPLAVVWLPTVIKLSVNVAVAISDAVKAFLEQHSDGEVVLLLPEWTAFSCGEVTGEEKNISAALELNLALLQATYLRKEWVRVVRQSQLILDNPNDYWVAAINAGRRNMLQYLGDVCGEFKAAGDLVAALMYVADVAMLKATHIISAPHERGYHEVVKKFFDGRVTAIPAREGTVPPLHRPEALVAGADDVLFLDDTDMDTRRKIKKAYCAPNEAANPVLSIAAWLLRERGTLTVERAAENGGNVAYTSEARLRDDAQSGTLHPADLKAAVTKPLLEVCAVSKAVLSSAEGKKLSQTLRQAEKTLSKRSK
# Test Name: Trypanosoma cruzi tyrosyl tRNA synthetase (TcYRS) _High Tyrosine SOP; further: in the data most compounds retested in dose-response had high values
# Format: functional
# Design: scale not given: direction of the effect not stated beside the values
# Test Context: 30 µM
What Percent Effect was measured for each of the following?
Number in %, nothing else.

Input: Look up Percent Effect for this molecule: `Cn1cc(CN2CCn3cc(CNC(=O)C4CCC4)nc3C2)cn1`
Output: 7.29

Input: # query: Percent Effect of entry CCOCC1CN(Cc2ccoc2)Cc2nn(CC3CC3)cc21 (centres undefined)
Output: -7.92

Input: I'd like to know its Percent Effect. The molecule in question is `O=C1[C@H]2CC[C@H](CN(S(=O)(=O)c3ccccc3)C2)N1Cc1cscn1`
Output: -1.04

Input: Fill in the blank: the reported Percent Effect of O=C(c1ccc[nH]1)N1CCCC2(CCN(c3ccsc3)C2=O)C1 (centres undefined) is ____.
Output: -3.17

Input: Recorded Percent Effect for `COc1ncccc1C(=O)Nc1nc2c(s1)CN(S(=O)(=O)C1CC1)CC2` , please?
Output: 3.23

Input: Report Percent Effect for `CN(Cc1nccn1CC(F)(F)F)C(=O)c1ccc(F)c(F)c1` please.
Output: 4.25

Input: Entry COc1ccccc1CC1CCCN(CCC#N)C1 (centres undefined) : reported Percent Effect = ?
Output: 2.86

Input: Item under review: CN1CCN(C(CNC(=O)CCn2cccn2)c2cccs2)CC1 (centres undefined) . Reported Percent Effect?
Output: 2.73

Input: Can you look up the measured Percent Effect of `COC(=O)c1ccccc1NC(=O)c1nc2ccccc2n(C)c1=O` for me?
Output: 4.23

Input: Consider the molecule CSCCC1c2nc[nH]c2CCN1Cc1cc(Cl)ccc1O (centres undefined) and give its measured Percent Effect.
Output: 12.6

Input: # input molecule: `CC(=O)NCCNC(=O)c1cnc(-c2ccccc2)nc1` ; wanted: its Percent Effect
Output: 6.45

Input: What value of Percent Effect has been recorded for this entry: `Cn1ccnc1CN1CC[C@@H](NS(C)(=O)=O)[C@@H]1Cc1cccnc1`
Output: 2.16

Input: GET /values?readout=Percent Effect&item= CC(NC(=O)NCc1cccc(N2CCCC2=O)c1)c1ccccc1 (centres undefined)
Output: 1.91

Input: Query (molecule): `COc1nc2c(cc1C(=O)N1C[C@H](N)C[C@H]1C(=O)NC(C)C)CCC2` ; field requested: Percent Effect
Output: 6.32

Input: For the molecule shown here, `CCCn1nc2c(cc1=O)CN(Cc1cc(C)on1)CC2` , give the reported Percent Effect.
Output: 6.93

Input: What does the record list as Percent Effect for `CN(c1ccc(C(C)(C)C)cc1)S(=O)(=O)c1cc(C(=O)O)cs1` ?
Output: -1.48

Input: Record request: Percent Effect value, item `Cc1cccc(C(=O)NCc2ccc(S(N)(=O)=O)cc2)n1`
Output: 9.71

Input: Item under review: `CS(=O)(=O)N1CC[C@]2(C[C@@H](OCC3CCC3)CO2)C1` . Reported Percent Effect?
Output: 5.38

Input: State the recorded Percent Effect for this entry: `O=C(NCCC(=O)N1CCCCCC1)c1c(O)cc(F)cc1F`
Output: 2.86

Input: Report Percent Effect for `O=C(Cc1ccccc1F)N1CCN(C(=O)c2ccoc2)CC1` please.
Output: 9.57

Input: Suppose we examine the molecule `CC1CCN(CCCNS(=O)(=O)c2cccc(F)c2)CC1` ; what Percent Effect value has been reported?
Output: 5.38

Input: Given Cc1ccc(CNC(=O)N2CCCCC2CCNS(C)(=O)=O)cc1 (centres undefined) , state its recorded Percent Effect.
Output: 2.65

Input: Suppose we examine the molecule CCNC(=O)N1CCCCC1CCNS(C)(=O)=O (centres undefined) ; what Percent Effect value has been reported?
Output: 7.94

Input: Given the entry CN(c1ccncn1)C1CC2(CCN(C(=O)c3cccs3)C2)C1 (centres undefined) , report its measured Percent Effect.
Output: -6.45

====

# Target Of Assay: Chromo domain-containing protein 1 (Saccharomyces cerevisiae (strain ATCC 204508 / S288c) (Baker's yeast))
# Test Name: ScCHD-1 Enzyme Inhibition Assay; further: in the data most compounds retested in dose-response had high values
# Type: functional
# Parameters: scale not given: direction of the effect not stated beside the values
# Test Context: 30 µM
Answer each item with its documented Percent Effect.
Quick reminder: number only, in %, skip the unit.

Input: Fill in: Percent Effect of Cc1cc(C2CCCN(C(=O)CN3CCN(C)CC3)C2)n[nH]1 (stereo not drawn) is ___
Output: -5.49

Input: May I ask what Percent Effect has been recorded for `Fc1ccc(CN2CCO[C@H]3[C@H](OCC4CC4)CC[C@@H]32)cc1` ?
Output: -4.58

Input: Could you share which Percent Effect value was measured for Cc1ccc(CN2CCc3ncnc(C4CCOC4)c3CC2)s1 (stereo not drawn) ?
Output: -6.72

Input: // query Percent Effect value for entry `O=C(c1ccccn1)N1C[C@@H]2CC[C@H](C1)N(C(=O)CCc1cccs1)C2`
Output: 2.24

Input: Endpoint output: Percent Effect of Cc1cc(F)ccc1CN1CCC(O)(CN2CCCCC2)C1 (stereo not drawn) . Value?
Output: -4.93

Input: For the compound `COC(=O)c1ccccc1NC(=O)c1nc2ccccc2n(C)c1=O` , what Percent Effect is on record?
Output: -8.57

Input: Request the reported Percent Effect associated with `CCc1nc(CC(=O)N2CCn3c(nnc3C(C)C)C2)cs1`
Output: -11

Input: Would you mind telling me what Percent Effect value was observed for `Cc1cnc(C(=O)N2CCCN(Cc3csc(C)n3)CC2)cn1` ?
Output: -12.5

Input: Item under review: CSc1ccc(C(CNC(=O)C2CC2)N2CCc3sccc3C2)cc1 (stereo not drawn) . Reported Percent Effect?
Output: 4.76

Input: For the compound `Cn1cc(CN2CCc3nc(-c4ccccn4)nc(O)c3C2)cn1` , what Percent Effect is on record?
Output: -10.9

Input: Recorded Percent Effect of `O=C(c1ccc(F)cc1)N1C[C@H]2CCC[C@@]2(COCc2ccccn2)C1` , please.
Output: 1.95

Input: Which value of Percent Effect has been reported for `O=C(c1ccoc1)N1CC[C@@H]2O[C@H](COCc3ccccn3)CC[C@@H]21` in the records?
Output: -3.84

Input: Look up Percent Effect: Cc1ccc(C(NC(=O)CC2CCN(C(C)C)CC2)C(=O)O)cc1 (stereo not drawn)
Output: 0.336

Input: Fill in the blank: the reported Percent Effect of `CN(Cc1ccco1)C(=O)[C@H]1CSCN1C(=O)OC(C)(C)C` is ____.
Output: -3.35

Input: Fill in: Percent Effect of `Cc1ccc(C(=O)NS(=O)(=O)c2cc(Cl)ccc2Cl)c(=O)[nH]1` is ___
Output: -3.61

Input: # Percent Effect lookup, item CCc1ccc(CNC(=O)NC(C)CN2CCOCC2)s1 (stereo not drawn)
Output: 8.4

Input: Give its Percent Effect value. Item: O=C(NC1CCS(=O)(=O)C1)c1sccc1-c1ccc(F)cc1 (stereo not drawn)
Output: 11.7

Input: Could you tell me which Percent Effect is on file for COCC1CCN(c2cc(C3CN(C)CCO3)nc(C)n2)CC1 (stereo not drawn) ?
Output: 9.94

Input: Which Percent Effect is reported for this compound? `COc1c(CNCc2cccc(CS(C)(=O)=O)c2)c(C)nn1C`
Output: -6.98

Input: Please look up its Percent Effect: CCN1CCN(C(=O)C(C)N2CCN(Cc3nccn3C)CC2)CC1 (stereo not drawn)
Output: 2.46

Input: I'd like to know its Percent Effect. The compound in question is Cc1cc(N2CCCC2c2cnccn2)ncn1 (stereo not drawn)
Output: -2.99

Input: Record request: Percent Effect value, item `Cc1ncc(C(=O)N2C[C@H]3CC[C@@H]2CN(S(=O)(=O)N(C)C)C3)c(C)n1`
Output: -6.2

Input: Name the reported Percent Effect value associated with the compound `CCOCCCC(=O)NCCC(=O)N1CCN(c2ccccn2)CC1`
Output: -4.16

Reference source for all entries: ChEMBL document CHEMBL3988442
